SYSTEM UNDER TEST: T1, biotinylated hBLyS-ECD (human, UniProt Q9Y275 134-285, biotinylated with Biotin-X-X-NHS (molar ratio 7:1), sites not stated)
T1 construct: The hBLyS-ECD of Embodiment 1 after biotinylation (Embodiment 2); also called biotinylated immunogen; BLyS protein; not shown: His tag of the pCPC vector
T1 sequence (Q9Y275 134-285): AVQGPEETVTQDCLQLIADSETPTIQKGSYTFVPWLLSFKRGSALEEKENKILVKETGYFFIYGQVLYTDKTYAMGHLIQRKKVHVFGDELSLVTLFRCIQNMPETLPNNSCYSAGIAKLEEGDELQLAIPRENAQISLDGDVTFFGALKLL
PROTOCOL DETAILS: ELISA, biotinylated hBLyS-ECD captured on streptavidin; antibody 13.3 nM
If the reported OD450 nm equals or exceeds 2, assign 1. If not, assign 0.

| BINDER | LABEL CLASS |
| --- | --- |
| 8E7D9C7F5 (antibody, V domains shown, Mouse hybridoma antibody purified on Protein G) VH: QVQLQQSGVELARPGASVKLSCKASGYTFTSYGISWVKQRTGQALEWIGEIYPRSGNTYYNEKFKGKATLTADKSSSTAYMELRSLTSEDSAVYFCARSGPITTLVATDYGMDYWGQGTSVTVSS VL: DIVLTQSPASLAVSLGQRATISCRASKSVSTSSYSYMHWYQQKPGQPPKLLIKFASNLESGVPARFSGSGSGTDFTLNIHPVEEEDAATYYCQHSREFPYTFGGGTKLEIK | 1 |
| 97A3C2H4 (antibody, V domains shown, Mouse hybridoma antibody purified on Protein G) VH: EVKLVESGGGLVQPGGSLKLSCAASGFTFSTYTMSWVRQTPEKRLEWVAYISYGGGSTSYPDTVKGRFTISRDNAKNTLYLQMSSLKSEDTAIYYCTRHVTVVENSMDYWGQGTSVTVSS VL: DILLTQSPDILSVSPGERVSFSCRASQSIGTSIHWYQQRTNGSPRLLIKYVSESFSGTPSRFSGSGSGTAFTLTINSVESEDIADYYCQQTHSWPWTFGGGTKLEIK | 1 |
| L1D12 (antibody, human IgG1, V domains shown, also called LID12) VH: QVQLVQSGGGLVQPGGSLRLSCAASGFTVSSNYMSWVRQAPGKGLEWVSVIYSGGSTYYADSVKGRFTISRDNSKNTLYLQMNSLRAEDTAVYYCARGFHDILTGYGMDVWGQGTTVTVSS VL: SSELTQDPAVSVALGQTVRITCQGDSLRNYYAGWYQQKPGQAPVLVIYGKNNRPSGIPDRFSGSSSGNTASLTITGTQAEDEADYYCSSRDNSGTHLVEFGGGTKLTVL | 0 |
| L9G7 (antibody, human IgG1, V domains shown) VH: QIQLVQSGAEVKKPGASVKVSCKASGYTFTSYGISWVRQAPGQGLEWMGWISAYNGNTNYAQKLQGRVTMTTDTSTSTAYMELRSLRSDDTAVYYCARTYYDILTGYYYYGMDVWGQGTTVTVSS VL: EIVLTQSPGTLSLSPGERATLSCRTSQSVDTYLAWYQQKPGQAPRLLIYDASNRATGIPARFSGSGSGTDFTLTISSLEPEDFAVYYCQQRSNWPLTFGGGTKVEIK | 0 |
| 111D10D6G3 (antibody, V domains shown, Mouse hybridoma antibody purified on Protein G) VH: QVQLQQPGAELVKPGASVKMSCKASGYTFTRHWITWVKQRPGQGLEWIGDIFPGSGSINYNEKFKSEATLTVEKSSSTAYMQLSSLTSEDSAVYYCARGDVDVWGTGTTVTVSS VL: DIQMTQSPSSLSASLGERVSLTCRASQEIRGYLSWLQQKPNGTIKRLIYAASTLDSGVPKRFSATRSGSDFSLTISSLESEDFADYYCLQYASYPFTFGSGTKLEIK | 0 |
